Biological target: HIV-1 JR-CSF Env V292A (HIV-1 JR-CSF) (UniProt P20871)
Test: cell-based or functional assay
Each record here notes measured Fold IC50 increase relative to wild-type.
endpoint.label: Fold IC50 increase relative to wild-type (fold)

binder | measurement.units | test.result
PGT-135 (antibody, V domains shown) VH: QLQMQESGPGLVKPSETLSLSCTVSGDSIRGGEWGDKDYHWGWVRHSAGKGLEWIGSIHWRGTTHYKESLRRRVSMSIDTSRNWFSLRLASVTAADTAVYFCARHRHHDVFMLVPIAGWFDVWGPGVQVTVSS VL: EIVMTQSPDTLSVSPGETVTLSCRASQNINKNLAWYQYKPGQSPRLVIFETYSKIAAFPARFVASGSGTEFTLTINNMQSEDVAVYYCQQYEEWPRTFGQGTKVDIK | fold | 2
PGT-125 (antibody, V domains shown) VH: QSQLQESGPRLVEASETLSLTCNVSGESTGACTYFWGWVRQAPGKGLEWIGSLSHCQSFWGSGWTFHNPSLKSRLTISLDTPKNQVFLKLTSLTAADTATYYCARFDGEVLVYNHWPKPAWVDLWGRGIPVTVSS VL: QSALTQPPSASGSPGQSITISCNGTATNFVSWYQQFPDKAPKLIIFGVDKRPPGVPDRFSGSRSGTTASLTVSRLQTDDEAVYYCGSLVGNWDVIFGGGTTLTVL | fold | 3.3
PGT-127 (antibody, V domains shown) VH: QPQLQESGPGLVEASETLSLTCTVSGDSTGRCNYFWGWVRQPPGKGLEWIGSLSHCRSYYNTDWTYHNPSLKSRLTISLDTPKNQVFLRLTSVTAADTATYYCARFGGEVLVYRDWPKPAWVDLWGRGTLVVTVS VL: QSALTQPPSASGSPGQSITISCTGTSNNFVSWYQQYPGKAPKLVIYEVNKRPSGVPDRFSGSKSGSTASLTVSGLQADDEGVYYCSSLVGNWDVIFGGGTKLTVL | fold | 0.9

Values were extracted from patent US20200024330A1.
